test system: HCT-116; test: NCI tumour cell line growth inhibition, 48 h
Activity calls are given as the source filed them. Cut-off read from the data, not from the text of the source: active = GI50 up to about 1.1 µM and inactive = higher.
Endpoint Label: GI50

compound=Cc1ccc(C2=C(c3ccccc3)C(=O)C(c3ccccc3)=C2c2ccc(C)cc2)cc1 reported_measurement="31.4 µM (inactive)"
compound="CN(C)C(=O)C1CCC(=C2C(=O)OC(C)(C)OC2=O)N1C (stereo not given)" reported_measurement="> 100 µM (inactive)"
compound=O=C1Nc2ccccc2/C1=C\c1c(-c2ccccc2)nc2n1CCS2 reported_measurement="20.8 µM (inactive)"

Ask | Give its GI50 value. Item: O/N=C(/C(Cl)=C(Cl)Cl)C(Cl)Cl
Reply | 17.9 µM (inactive)

Ask | Give its GI50 value. Item: Cc1nc(Nc2ccccc2Cl)sc1C(=O)CC(=O)C(=O)Nc1c(Cl)cccc1Cl
Reply | 18.8 µM (inactive)

Ask | Give its GI50 value. Item: Cc1c(Cl)ccc2c1NC(=O)C2(O)C1Cc2ccccc2C1=O (stereo not given)
Reply | 62.7 µM (inactive)

Ask | Give its GI50 value. Item: CC(=O)Oc1cc(OC(C)=O)c2c(=O)c3ccccc3n(C)c2c1
Reply | 26.1 µM (inactive)

Ask | Give its GI50 value. Item: N#Cc1ccccc1NC(=O)/C(=N\NC(=O)c1ccncc1)C(c1cnc2ccc([N+](=O)[O-])cc2n1)[N+](=O)[O-] (stereo not given)
Reply | > 100 µM (inactive)

Ask | Give its GI50 value. Item: O=c1c2cccc3cccc(c4n1CCCN=4)c32
Reply | 31 µM (inactive)

Ask | Give its GI50 value. Item: C=C1CC/C=C(/C(=O)O)CC[C@H]2[C@@H]1CC2(C)C
Reply | > 100 µM (inactive)

====

test system: UACC-62; assay: NCI tumour cell line growth inhibition, 48 h
Active and inactive are the calls of the source. No stated cut-off is given here; in the data, active = GI50 up to about 1.1 µM and inactive = higher.
// classify into active, inactive

compound=N=C(N)c1ccc(/N=N\c2c(O)c(C(=O)Nc3ccccc3)cc3ccccc23)cc1 answer_label=inactive
compound=CC1(C)O[C@@H](CBr)C[C@H](C[C@H]2C[C@@H](O)C[C@@H](CCOCc3ccccc3)O2)O1 answer_label=inactive
compound=O=C1CCN2c3ccccc3[C@H]3Cc4cccc(c4[C@@H]2C3)CCO1 answer_label=inactive
compound=CC1(C)CC[C@]2(C)CC[C@]3(C)C(=CC[C@@H]4[C@@]5(C)CCC(=O)C(C)(C)[C@@H]5[C@H](O)C[C@]43C)[C@@H]2C1 answer_label=inactive
compound=Cc1cc(Br)c(O)c(-c2cscn2)c1 answer_label=inactive

Ask | Identify the outcome logged in this assay for the compound shown: CC1=CC(=O)N(n2c(Cc3ccc(Cl)cc3)n[nH]c2=O)C1=O
Reply | inactive

Ask | Identify the outcome logged in this assay for the compound shown: NC(Cc1ccccc1)C(=O)OCN1C(=O)C2C3C=CC(C2C1=O)C1C2C(=O)N(COC(=O)C(N)Cc4ccccc4)C(=O)C2C31 (stereo not given)
Reply | inactive

Ask | Identify the outcome logged in this assay for the compound shown: O=C1C(N2CCOCC2)=C(Cl)C(=O)c2ncccc21
Reply | inactive

Ask | Identify the outcome logged in this assay for the compound shown: C=CCCCN1CCCC(C)C1=S (stereo not given)
Reply | inactive

Ask | Identify the outcome logged in this assay for the compound shown: CCO/N=C\c1ccc2oc(-c3ccccc3)cc(=O)c2c1
Reply | active
